Tested on: 168753-222-R-J1-PDC complex spheroid viability;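 further: luminescence signal used as surrogate for viable cell amount; viability measured after seven days of drug exposure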
Protocol notes: Anticancer human tumor 168753-222-R-J1-PDC patient-derived bladder carcinoma cell line growth inhibition [CLK]; active means viability on the fitted dose curve at most 10% of control; inactive means the rest
Particulars: second compound 0.1 µM; first compound 10 µM
Log the outcome using a class from t for active, f for inactive

**Q:** Lab log entry: O=C(c1cc(Cc2n[nH]c(=O)c3ccccc23)ccc1F)N1CCN(C(=O)C2CC2)CC1 + CNC(=O)c1ccc(Nc2nc(OC3CCCC3)c3c(-c4ccc5nc(C)oc5c4)c[nH]c3n2)c(OC)c1 — outcome as called in the assay?
**A:** f

**Q:** Hello, I am checking results. What call was entered for C=C(F)C(=O)N1CCN(c2nc(OCC3CCCN3C)nc3c2CCN(c2cccc4cccc(Cl)c24)C3)CC1CC#N (stereo not given) + CNC(=O)c1ccc(Nc2nc(OC3CCCC3)c3c(-c4ccc5nc(C)oc5c4)c[nH]c3n2)c(OC)c1 ?
**A:** f

**Q:** What was the test verdict on C#Cc1c(F)ccc2cc(O)cc(-c3ncc4c(N5CC6CCC(C5)N6)nc(OCC56CCCN5CC(F)C6)nc4c3F)c12 (stereo not given) + CN1CCN(c2cc(C(=O)Nc3cc4cc(-c5cnn(C)c5)ccc4cn3)ccn2)CC1 ?
**A:** f

**Q:** Recorded call for Nc1ccn(C2OC(CO)C(O)C2(F)F)c(=O)n1 (stereo not given) + CNC(=O)c1ccc(Nc2nc(OC3CCCC3)c3c(-c4ccc5nc(C)oc5c4)c[nH]c3n2)c(OC)c1 ?
**A:** f

**Q:** Would you mind telling me which call this test gave COc1ccc([C@@H](O)c2cc(-c3ncnc4cc(N5CCOCC5)ccc34)c(F)cc2Cl)nn1 + CN1CCN(c2cc(C(=O)Nc3cc4cc(-c5cnn(C)c5)ccc4cn3)ccn2)CC1 ?
**A:** t

Further cases:
**Q:** What call does the record list for C=C(F)C(=O)N1CCN(c2nc(OCC3CCCN3C)nc3c2CCN(c2cccc4cccc(Cl)c24)C3)CC1CC#N (stereo not given) + CN1CCN(c2cc(C(=O)Nc3cc4cc(-c5cnn(C)c5)ccc4cn3)ccn2)CC1 ?
**A:** t

**Q:** Given O=c1[nH]cc(F)c(=O)[nH]1 + CN1CCN(c2cc(C(=O)Nc3cc4cc(-c5cnn(C)c5)ccc4cn3)ccn2)CC1 , state the outcome it received in this test.
**A:** f

**Q:** Per the records of this test, what outcome belongs to CC(CO)NC(=O)c1cc(-c2ccc(Cl)cc2)nn(-c2cnn(C)c2)c1=O (stereo not given) + CNC(=O)c1ccc(Nc2nc(OC3CCCC3)c3c(-c4ccc5nc(C)oc5c4)c[nH]c3n2)c(OC)c1 ?
**A:** f

**Q:** Recorded test outcome, item CC(=O)O[C@H]1C(=O)[C@@]2(C)[C@H]([C@H](OC(=O)c3ccccc3)[C@]3(O)C[C@H](OC(=O)[C@H](O)[C@@H](NC(=O)c4ccccc4)c4ccccc4)C(C)=C1C3(C)C)[C@]1(OC(C)=O)CO[C@@H]1C[C@@H]2O + CNC(=O)c1ccc(Nc2nc(OC3CCCC3)c3c(-c4ccc5nc(C)oc5c4)c[nH]c3n2)c(OC)c1
**A:** f

**Q:** # fetch the recorded call for COc1cccc2c1C(=O)c1c(O)c3c(c(O)c1C2=O)CC(O)(C(=O)CO)CC3OC1CC(N)C(O)C(C)O1 (stereo not given) + CN1CCN(c2cc(C(=O)Nc3cc4cc(-c5cnn(C)c5)ccc4cn3)ccn2)CC1 here
**A:** t
